Just for reference, PubChem BioAssay (NCI) is where these values come from.

system: 786-0 renal; assay: NCI tumour cell line growth inhibition, 48 h
Readout Type: GI50

Oc1ccc(Nc2nc3ccccc3c3occc23)cc1 ... 12200 nM
COc1cc(/C=C/C(=O)Nc2ccc3c(c2)/C(=C\c2cccn2C)C(=O)N3)cc(OC)c1OC ... 8690 nM
COc1cc(CN[C@H]2CCc3cc(OC)c(OC)c(OC)c3-c3ccc(SC)c(=O)cc32)cc(OC)c1 ... 30.7 nM
O=C(Nc1cccc(-n2ccc3c(NC(=O)c4ccccc4)nccc32)c1)Nc1ccc(Cl)c(C(F)(F)F)c1 ... 589 nM
COc1cccc2c1C(=O)c1c(O)c3c(c(O)c1C2=O)CC(O)(/C(C)=N/NC(=O)CCCCC(=O)N/N=C(\C)C1(O)Cc2c(O)c4c(c(O)c2C(OC2CC(N)C(O)C(C)O2)C1)C(=O)c1c(OC)cccc1C4=O)CC3OC1CC(N)C(O)C(C)O1 (centres undefined) ... 185 nM
C=C1CC2(OC1=O)C(=O)N(C)c1ccc(I)cc12 (centres undefined) ... 1650 nM
COc1ccc(-c2nnc(COc3ccc(Cl)cc3Cl)o2)cc1OC ... 1800 nM
CCNCCCn1c2c(c3ccc(F)cc3c1=O)C(=O)c1cc(OC)cnc1-2 ... 195 nM

### Prompt Indicate its recorded GI50; the molecule in question is `O=C1C(Cl)=C(Nc2cccc(O)c2)C(=O)N1CCc1ccccc1`
### Response 19200 nM

---

test system: HL-60(TB) leukemia; assay: NCI tumour cell line growth inhibition, 48 h
Readout Type: TGI

O=C(Nc1ccccn1)/C(=C\C(=O)c1ccc(Cl)cc1)Nc1ccccc1 ... > 10 µM
COc1ccc(N2C(=O)C3c4[nH]c5ccccc5c4C4CCC(c5ccccc5)CC4C3C2=O)cc1 (stereo not drawn) ... > 34.8 µM
CC1=NCC[N+]1(CCc1ccccc1)Cc1ccccc1 (stereo not drawn) ... 68.7 µM

### Prompt Indicate its recorded TGI; the compound in question is Cn1c(C(O)C2(c3cccnc3)SCCCS2)cc2ccccc21 (stereo not drawn)
### Response > 100 µM

### Prompt Indicate its recorded TGI; the compound in question is `CCOC(=O)c1c(NC(=O)COc2cccc3cccnc23)sc(C(=O)N(C)C)c1C`
### Response 39.9 µM

### Prompt Indicate its recorded TGI; the compound in question is `COc1ncc(-c2ccc3nccc(C#CCCCCC(=O)O)c3c2)cc1NS(=O)(=O)c1ccc(F)cc1F`
### Response 59.1 µM

### Prompt Indicate its recorded TGI; the compound in question is `N#CC[C@@H](O)COc1ccccc1`
### Response > 100 µM

### Prompt Indicate its recorded TGI; the compound in question is COC(=O)[C@](NC(=O)OCc1ccccc1)([C@@H](C)S(=O)c1ccc(C)cc1)C(F)(F)F (stereo partly drawn)
### Response 38.9 µM

### Prompt Indicate its recorded TGI; the compound in question is `O=C1NC(=O)/C(=C/c2c(Cl)nc3sccn23)S1`
### Response > 100 µM

### Prompt Indicate its recorded TGI; the compound in question is Cc1nn(C(=O)c2ccccc2O)c2c1C(c1ccccc1O)SC(N)=N2 (stereo not drawn)
### Response 5.02 µM

---

Listing: TGI of selected molecules
tested on: BT-549 breast; assay: NCI tumour cell line growth inhibition, 48 h

Past entries and their recorded results:
C/C(=N\NC(=S)Nc1ccccc1)c1nc2ncccc2[nH]1 ... 26.2 µM
COc1cc(C)c2c(c1C=O)Oc1c(c(C)c(O)c3c1C(O)OC3=O)OC2=O (stereo not given) ... > 100 µM
CCN(CC)CCn1ncc2c3c(=O)c4cccnc4n(CCN(CC)CC)c3ccc21 ... > 10 µM
N#C/C(=C\c1cn(Cc2ccccc2)c2ccccc12)C(=O)Nc1ncc(Cc2ccccc2Cl)s1 ... 11.6 µM
CC(CCOc1c2ccoc2cc2oc(=O)ccc12)C1=CC(=O)C(C)(C)O1 (stereo not given) ... > 100 µM
CNC(=O)C(CCc1ccccc1)NC(=O)C(CC(=O)NO)CC(C)C (stereo not given) ... > 25 µM

### Prompt State TGI on BT-549 breast. Entry: `CC(=O)Oc1ccc2[nH]c3c(C)c4cccc-4ccc3c2c1`
### Response 5.37 µM

### Prompt State TGI on BT-549 breast. Entry: `O=C1c2scc(-c3ccccc3)c2-n2cccc21`
### Response > 100 µM

### Prompt State TGI on BT-549 breast. Entry: `CCN1C(=O)C(=C/C=C/c2ccc(OC)cc2)C(=O)N(CC)C1=S`
### Response 90.1 µM

---

system: OVCAR-4 ovarian; test: NCI tumour cell line growth inhibition, 48 h
Listing: TGI of selected compounds

Past entries and their recorded results:
Cc1cc(C#N)c[n+](C)c1 ... > 100 µM
COc1nc(NC2OC(COC(C)=O)C(OC(C)=O)C(OC(C)=O)C2OC(C)=O)c2c(OC(C)=O)c(C)c(=O)oc2n1 (centres undefined) ... > 100 µM
CC1CN=C(N(Cc2ccc(F)cc2)C(=O)Nc2ccc(Cl)cc2)S1 (centres undefined) ... > 100 µM

Next:
### Prompt State TGI on OVCAR-4 ovarian. Entry: CC1NS(=O)(=O)N(C)C1=O (centres undefined)
### Response > 100 µM

---

tested on: DU-145 prostate; experiment: NCI tumour cell line growth inhibition, 48 h
Listing: TGI of selected compounds

Past entries and their recorded results:
O=C(C=P(c1ccccc1)(c1ccccc1)c1ccccc1)c1ccc(-c2cccc([N+](=O)[O-])c2)cc1 ... 35.1 µM
COC(=O)[C@@H]1C[C@@]23CCCN4CC[C@@]5(c6cccc(OC)c6N(C=O)[C@]15CC2)[C@@H]43 ... > 100 µM

Next:
### Prompt Indicate its recorded TGI; the compound in question is CC1CN=C(N(Cc2ccc(F)cc2)C(=O)Nc2ccc(Cl)cc2)S1 (stereo not drawn)
### Response > 100 µM

---

tested on: M14 melanoma; assay: NCI tumour cell line growth inhibition, 48 h
Readout Type: TGI

Past entries and their recorded results:
O=C(NCCOC(=O)OCCNC(=O)NC1CCCCC1)NC1CCCCC1 ... > 100 µM
CC1OC(OC2C(O)C(OCCc3ccc(O)c(O)c3)OC(CO)C2OC(=O)/C=C/c2ccc(O)c(O)c2)C(O)C(O)C1OC1OCC(O)(CO)C1O (stereo not drawn) ... > 100 µM
O=C1NN=C2C=C(c3ccc(Cl)cc3)CC(c3cccc(Br)c3)C12 (stereo not drawn) ... > 100 µM
COc1ccc2c3c1O[C@H]1[C@@H](O)CC[C@@]4(O)[C@@H](C2)N(C)CC[C@]314 ... > 100 µM
CC(C)=CC(=O)c1[nH]c2ccccc2c1CC(=O)NCCc1cn(C(c2ccccc2)(c2ccccc2)c2ccccc2)cn1 ... 4.8 µM

### Prompt Indicate its recorded TGI; the compound in question is C=C1CC2(OC1=O)C(=O)N(C)c1ccc(I)cc12 (stereo not drawn)
### Response 3.03 µM

### Prompt Indicate its recorded TGI; the compound in question is O=C1CSC(c2ccccc2O)N1c1ccc(-c2ccc(-n3c(-c4ccccc4)nc4ccccc4c3=O)cc2)cc1 (stereo not drawn)
### Response > 100 µM

### Prompt Indicate its recorded TGI; the compound in question is CC1CN=C(N(Cc2ccc(F)cc2)C(=O)Nc2ccc(Cl)cc2)S1 (stereo not drawn)
### Response 17.4 µM

### Prompt Indicate its recorded TGI; the compound in question is `C[n+]1c2ccccc2n2c3ccccc3c(NCCCN3CCOCC3)c(C#N)c21`
### Response 2.85 µM

### Prompt Indicate its recorded TGI; the compound in question is COc1cc(C2NCCC(c3ccccc3)(c3ccccc3)N2)cc(OC)c1OC (stereo not drawn)
### Response 27.2 µM

### Prompt Indicate its recorded TGI; the compound in question is `CCN(CC)CCn1ncc2c3c(=O)c4cccnc4n(CCN(CC)CC)c3ccc21`
### Response > 10 µM

### Prompt Indicate its recorded TGI; the compound in question is `NCCc1c[nH]c2ccc(OC(=O)C(=O)O)cc12`
### Response > 100 µM

### Prompt Indicate its recorded TGI; the compound in question is `O=C(NO)C(=O)Nc1cc(Cl)ccc1Cl`
### Response > 100 µM

### Prompt Indicate its recorded TGI; the compound in question is `Cc1cccc(C(C)(C)C)c1NC(=O)CCl`
### Response > 100 µM

### Prompt Indicate its recorded TGI; the compound in question is CC(=O)OC1CC2CC(=O)CC1N2C (stereo not drawn)
### Response > 100 µM

### Prompt Indicate its recorded TGI; the compound in question is `COc1ccc(C(=C[N+](=O)[O-])c2ccc(OC)cc2)cc1`
### Response 41.8 µM

### Prompt Indicate its recorded TGI; the compound in question is COc1ccc(C2/C(=C(\O)c3ccccc3)C(=O)C(O)(CC(=O)c3ccccc3)N2c2ccc(OC)cc2)cc1 (stereo not drawn)
### Response 99.6 µM

### Prompt Indicate its recorded TGI; the compound in question is `Cc1cc(-n2c(/C=C/c3ccc(Cl)cc3)nc3cc(Cl)ccc3c2=O)on1`
### Response 32.9 µM

### Prompt Indicate its recorded TGI; the compound in question is `O=C(CCC(C(=O)OCc1ccccc1)C(=O)OCc1ccccc1)Nc1ccc(OCc2ccccc2)cc1`
### Response > 100 µM

### Prompt Indicate its recorded TGI; the compound in question is `CCOC(=O)/C=C/C1=C(c2ccsc2)c2ccc(OC)cc2CC1`
### Response > 100 µM
